Origin of measurements: patent US20260242405A1

Molecular target: NB-Phu13 (IBV neuraminidase) (Influenza B virus, UniProt A0A1S5RAG6)
Sequence (A0A1S5RAG6 39-466): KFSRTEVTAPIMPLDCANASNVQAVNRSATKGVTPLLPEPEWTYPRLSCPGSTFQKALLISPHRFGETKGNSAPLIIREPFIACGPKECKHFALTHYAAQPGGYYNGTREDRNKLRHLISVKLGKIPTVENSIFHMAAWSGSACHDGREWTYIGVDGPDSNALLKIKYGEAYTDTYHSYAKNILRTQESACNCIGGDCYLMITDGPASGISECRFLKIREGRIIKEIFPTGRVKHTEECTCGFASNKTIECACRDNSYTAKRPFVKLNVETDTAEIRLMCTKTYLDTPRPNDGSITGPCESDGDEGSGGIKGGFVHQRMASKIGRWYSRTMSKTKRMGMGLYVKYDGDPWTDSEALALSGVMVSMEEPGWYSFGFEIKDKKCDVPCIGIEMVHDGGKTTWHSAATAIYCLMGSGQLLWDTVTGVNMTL
Assay: Fluorescence-based inhibition assay (substrate Neu5Acα2-3GalβMU, β-galactosidase coupled)
Assay type: biochemical, influenza B virus B/Phuket/3073/2013
Settings: read-out: percentage inhibition against NB-Phu13
metric: inhibition at 8 µM (%)
Numeric answer only, unit % assumed.

{"compound": "CC(=O)N[C@H]1[C@H]([C@H](O)[C@H](O)CO)O[C@@](OC[C@H]2O[C@@H](Oc3ccc([N+](=O)[O-])cc3)[C@H](O)[C@@H](O)[C@H]2O)(C(=O)O)C[C@@H]1NC(=N)N", "quantitative readout": 78.9}

Now for the compound whose inhibition at 8 µM we want.
Return reported inhibition at 8 µM; argument: CC(=O)N[C@@H]1C(N)C[C@](OC2C(O)[C@H](Oc3ccc([N+](=O)[O-])cc3)OC(CO)[C@@H]2O)(C(=O)O)OC1[C@H](O)[C@H](O)CO (stereo partly drawn)
18.3
